The measurements presented in this section are drawn from patent US20250064844A1.

assay: in vivo; settings: ICR (CD-1), mouse, 15 mg/kg
ASSAY METRIC: half-life (min)
One number for each entry, in min.

Please report the recorded half-life for CC(C)[C@H](N)C(=O)OC[C@H]1O[C@@H](n2ccc(NO)nc2=O)[C@H](O)[C@@H]1O [EIDD-2898] .
20.4

---

assay: clinical; settings: human, in vivo, 800 mg, Cmax
ASSAY METRIC: Cmax (ng/mL)
Answers are plain numbers, in ng/mL.

Please report the recorded Cmax for O=c1nc(NO)ccn1C1OC(CO)C(O)C1O (stereo not shown) .
2970

---

experiment: clinical; conditions: human, in vivo, 200 mg, AUCt
ASSAY METRIC: AUC(0-t) (ng·h/mL)
Numbers only, in ng·h/mL.

Please report the recorded AUC(0-t) for O=c1nc(NO)ccn1C1OC(CO)C(O)C1O (stereo not shown) [EIDD-1931] .
1730
